residual activity listing for selected compounds.
tested-target: Protein kinase C zeta type (Homo sapiens) (UniProt Q05513)
Sequence (whole entry): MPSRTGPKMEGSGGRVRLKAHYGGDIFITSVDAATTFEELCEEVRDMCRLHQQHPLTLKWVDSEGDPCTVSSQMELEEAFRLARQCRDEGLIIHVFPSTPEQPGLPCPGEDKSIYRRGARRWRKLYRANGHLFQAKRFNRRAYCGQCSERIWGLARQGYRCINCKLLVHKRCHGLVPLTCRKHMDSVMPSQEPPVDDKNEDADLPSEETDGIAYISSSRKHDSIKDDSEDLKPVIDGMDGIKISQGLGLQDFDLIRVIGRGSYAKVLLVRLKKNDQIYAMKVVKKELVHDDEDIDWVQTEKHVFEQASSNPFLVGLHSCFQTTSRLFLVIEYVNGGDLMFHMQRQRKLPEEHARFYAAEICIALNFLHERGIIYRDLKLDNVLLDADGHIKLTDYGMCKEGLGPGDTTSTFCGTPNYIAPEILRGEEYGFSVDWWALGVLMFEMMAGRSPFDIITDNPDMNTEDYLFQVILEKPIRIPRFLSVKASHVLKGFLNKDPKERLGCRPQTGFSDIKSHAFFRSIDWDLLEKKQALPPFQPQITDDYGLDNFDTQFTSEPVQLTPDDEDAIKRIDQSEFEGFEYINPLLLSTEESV
conditions: at 10 µM

>  <compound>
O=C1NC(=O)C(c2c[nH]c3ccccc23)=C1c1c[nH]c2ccccc12

>  <tested-target>
Protein kinase C zeta type (Homo sapiens) (UniProt Q05513)

>  <residual activity [%]>
25

$$$$
>  <compound>
Nc1ncnc2c1c(-c1ccc(Oc3ccccc3)cc1)cn2C1CCCC1

>  <tested-target>
Protein kinase C zeta type (Homo sapiens) (UniProt Q05513)

>  <residual activity [%]>
107

$$$$
>  <compound>
CCCCc1c(-c2ccc(OC)cc2)[nH]c2nccnc12

>  <tested-target>
Protein kinase C zeta type (Homo sapiens) (UniProt Q05513)

>  <residual activity [%]>
103

$$$$
>  <compound>
O=c1cc(N2CCOCC2)oc2c1ccc1ccccc12

>  <tested-target>
Protein kinase C zeta type (Homo sapiens) (UniProt Q05513)

>  <residual activity [%]>
91

$$$$
>  <compound>
O=C(NC(NC(=S)Nc1ccc(F)c([N+](=O)[O-])c1)C(Cl)(Cl)Cl)C(c1ccccc1)c1ccccc1 (stereo not drawn)

>  <tested-target>
Protein kinase C zeta type (Homo sapiens) (UniProt Q05513)

>  <residual activity [%]>
94

$$$$
>  <compound>
O=C(O)/C=C/c1cc(Br)c(Br)c(Br)c1Br

>  <tested-target>
Protein kinase C zeta type (Homo sapiens) (UniProt Q05513)

>  <residual activity [%]>
88

$$$$
>  <compound>
O=C1NC(=O)C(c2cn(CCCn3ccnc3)c3ccccc23)=C1Nc1ccccc1

>  <tested-target>
Protein kinase C zeta type (Homo sapiens) (UniProt Q05513)

>  <residual activity [%]>
50

$$$$
>  <compound>
c1ccc(-c2cnc(Nc3ccc(OCCN4CCCC4)cc3)s2)cc1

>  <tested-target>
Protein kinase C zeta type (Homo sapiens) (UniProt Q05513)

>  <residual activity [%]>
109

$$$$

---

tested-target: Receptor-interacting serine/threonine-protein kinase 2 (Homo sapiens)
conditions: at 1 µM
Description: Millipore: Percentage of residual kinase activity of RIPK2 at 1uM relative to control. Control inhibitor: Phosphoric acid* at 0.3uM. Buffer: 8 mM MOPS pH 7.0, 0.2 mM EDTA

>  <compound-smiles>
CCCC(=O)Oc1ccc2[nH]c(C(=O)c3cc4ccccc4[nH]3)cc2c1

>  <residual activity [%]>
91

$$$$
>  <compound-smiles>
Cn1sc(=O)n(Cc2ccccc2)c1=O

>  <residual activity [%]>
92

$$$$
>  <compound-smiles>
CC(C)c1nn(-c2c(Cl)cccc2Cl)c2nc(Cc3ccc(OCCO)cc3)[nH]c(=O)c12

>  <residual activity [%]>
90

$$$$

---

residual activity listing for selected compounds.
tested-target: LIM domain kinase 1 (Homo sapiens) (UniProt P53667)
Sequence (P53667 whole entry, looked up, the tested form may be a part): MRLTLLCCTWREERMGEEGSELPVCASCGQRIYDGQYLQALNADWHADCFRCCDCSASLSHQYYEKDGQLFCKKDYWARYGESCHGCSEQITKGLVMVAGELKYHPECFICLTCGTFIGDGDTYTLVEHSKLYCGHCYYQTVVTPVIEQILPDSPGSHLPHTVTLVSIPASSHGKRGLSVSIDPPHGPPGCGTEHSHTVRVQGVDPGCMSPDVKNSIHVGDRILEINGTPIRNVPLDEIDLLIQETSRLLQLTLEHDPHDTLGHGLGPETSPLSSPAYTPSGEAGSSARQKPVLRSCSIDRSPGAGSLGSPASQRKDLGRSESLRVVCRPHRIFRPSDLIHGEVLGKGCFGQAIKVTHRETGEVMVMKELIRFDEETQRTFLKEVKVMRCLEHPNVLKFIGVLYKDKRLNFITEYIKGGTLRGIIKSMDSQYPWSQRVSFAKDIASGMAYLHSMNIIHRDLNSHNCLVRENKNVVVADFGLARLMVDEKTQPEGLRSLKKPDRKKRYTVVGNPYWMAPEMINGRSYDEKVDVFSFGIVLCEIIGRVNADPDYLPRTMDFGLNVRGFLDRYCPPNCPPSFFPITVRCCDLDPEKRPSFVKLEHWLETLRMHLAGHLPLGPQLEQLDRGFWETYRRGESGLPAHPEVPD
conditions: at 10 µM

>  <compound-smiles>
O=c1cc(N2CCNCC2)oc2c(-c3ccccc3)cccc12

>  <measurement-unit>
%

>  <residual activity>
86

$$$$
>  <compound-smiles>
NCCNc1ncc(C(N)=O)c(Nc2cccc(C(F)(F)F)c2)n1

>  <measurement-unit>
%

>  <residual activity>
50

$$$$
>  <compound-smiles>
O=c1cc(N2CCOCC2)oc2c1ccc1ccccc12

>  <measurement-unit>
%

>  <residual activity>
92

$$$$

---

residual activity listing for selected molecules.
tested-target: Discoidin domain-containing receptor 2 (Homo sapiens)
conditions: at 10 µM

>  <molecule>
CCCC(=O)Oc1ccc2[nH]c(C(=O)c3cc4ccccc4[nH]3)cc2c1

>  <measurement-unit>
%

>  <residual activity>
101

$$$$
>  <molecule>
Fc1ccc(-c2nc3n(c2-c2ccncc2)CCS3)cc1

>  <measurement-unit>
%

>  <residual activity>
35

$$$$
>  <molecule>
NC(=O)Nc1sc(-c2ccc(F)cc2)cc1C(N)=O

>  <measurement-unit>
%

>  <residual activity>
40

$$$$
>  <molecule>
NC(=O)c1ccc(-c2nc(-c3ccc4c(c3)OCCO4)c(-c3ccccn3)[nH]2)cc1

>  <measurement-unit>
%

>  <residual activity>
97

$$$$
>  <molecule>
O=C(NC(NC(=S)Nc1ccc(F)c([N+](=O)[O-])c1)C(Cl)(Cl)Cl)C(c1ccccc1)c1ccccc1 (stereo not given)

>  <measurement-unit>
%

>  <residual activity>
90

$$$$

---

tested-target: Serine/threonine-protein kinase PLK3 (Homo sapiens)
conditions: at 10 µM
Description: Millipore: Percentage of residual kinase activity of PLK3 at 10uM relative to control. Control inhibitor: Wortmannin at 100.0uM. Buffer: 8 mM MOPS pH 7.0, 0.2 mM EDTA

>  <compound-smiles>
O=C1C(Cl)=C(N2C(=O)CCC2=O)C(=O)c2ccccc21

>  <tested-target>
Serine/threonine-protein kinase PLK3 (Homo sapiens)

>  <residual activity (%)>
93

$$$$
>  <compound-smiles>
CC(C)(C)n1nc(Cc2cccc3ccccc23)c2c(N)ncnc21

>  <tested-target>
Serine/threonine-protein kinase PLK3 (Homo sapiens)

>  <residual activity (%)>
97

$$$$
>  <compound-smiles>
CC(C)(C)c1nc2c3ccc(F)cc3c3c(=O)[nH]ccc3c2[nH]1

>  <tested-target>
Serine/threonine-protein kinase PLK3 (Homo sapiens)

>  <residual activity (%)>
64

$$$$
>  <compound-smiles>
O=C(CCCc1ccc(-c2ccccc2F)cc1)Nc1ccc(O)cc1

>  <tested-target>
Serine/threonine-protein kinase PLK3 (Homo sapiens)

>  <residual activity (%)>
98

$$$$
>  <compound-smiles>
CCCC(=O)Oc1ccc2[nH]c(C(=O)c3cc4ccccc4[nH]3)cc2c1

>  <tested-target>
Serine/threonine-protein kinase PLK3 (Homo sapiens)

>  <residual activity (%)>
85

$$$$
>  <compound-smiles>
Fc1ccc(-c2nc3n(c2-c2ccncc2)CCS3)cc1

>  <tested-target>
Serine/threonine-protein kinase PLK3 (Homo sapiens)

>  <residual activity (%)>
95

$$$$
>  <compound-smiles>
O=C1Cc2c([nH]c3ccc(Br)cc23)-c2ccccc2N1

>  <tested-target>
Serine/threonine-protein kinase PLK3 (Homo sapiens)

>  <residual activity (%)>
83

$$$$
>  <compound-smiles>
COc1ccc(Cl)cc1NC(=O)Nc1cc(C)nc2ccccc12

>  <tested-target>
Serine/threonine-protein kinase PLK3 (Homo sapiens)

>  <residual activity (%)>
93

$$$$
>  <compound-smiles>
O=C1NC(=O)c2c1c1c3ccccc3[nH]c1n1cncc21

>  <tested-target>
Serine/threonine-protein kinase PLK3 (Homo sapiens)

>  <residual activity (%)>
31

$$$$

---

residual activity listing for selected molecules.
tested-target: Mitogen-activated protein kinase 3 (Homo sapiens) (UniProt P27361)
Sequence (P27361 whole entry): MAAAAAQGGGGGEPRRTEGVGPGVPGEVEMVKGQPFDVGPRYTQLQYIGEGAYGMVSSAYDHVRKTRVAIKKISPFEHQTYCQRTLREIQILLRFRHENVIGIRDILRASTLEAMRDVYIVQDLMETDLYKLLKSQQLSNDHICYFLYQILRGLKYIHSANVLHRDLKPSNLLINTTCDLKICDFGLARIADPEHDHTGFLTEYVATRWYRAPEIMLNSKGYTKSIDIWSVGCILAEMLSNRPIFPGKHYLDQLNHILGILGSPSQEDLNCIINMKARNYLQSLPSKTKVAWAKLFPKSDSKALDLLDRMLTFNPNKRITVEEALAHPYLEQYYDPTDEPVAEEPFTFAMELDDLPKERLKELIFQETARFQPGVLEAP
conditions: at 10 µM
Description: Millipore: Percentage of residual kinase activity of MAPK3 at 10uM relative to control. Control inhibitor: ERK Inhibitor II at 30.0uM. Buffer: 25 mM Tris pH 7.5, 0.02 mM EGTA

>  <molecule>
O=c1c(-c2ccc(F)cc2)c(-c2ccncc2)[nH]n1-c1ccc(Cl)cc1

>  <measurement-unit>
%

>  <residual activity>
66

$$$$
>  <molecule>
O=C(c1ccccc1)c1ccc(N2CCOCC2)cc1O

>  <measurement-unit>
%

>  <residual activity>
89

$$$$
>  <molecule>
O=c1cc(N2CCNCC2)oc2c(-c3ccccc3)cccc12

>  <measurement-unit>
%

>  <residual activity>
87

$$$$
>  <molecule>
Oc1cccc(-c2nc(N3CCOCC3)c3oc4ncccc4c3n2)c1

>  <measurement-unit>
%

>  <residual activity>
87

$$$$
>  <molecule>
COc1ccc(-c2cnc3c(-c4ccsc4)cnn3c2)cc1

>  <measurement-unit>
%

>  <residual activity>
91

$$$$
>  <molecule>
O=C(Nc1ccc(Cl)cc1)c1ccccc1NCc1ccncc1

>  <measurement-unit>
%

>  <residual activity>
80

$$$$
>  <molecule>
O=C1C(Cl)=C(N2C(=O)CCC2=O)C(=O)c2ccccc21

>  <measurement-unit>
%

>  <residual activity>
91

$$$$
>  <molecule>
CC(C)(C)n1nc(Cc2cccc3ccccc23)c2c(N)ncnc21

>  <measurement-unit>
%

>  <residual activity>
51

$$$$
>  <molecule>
O=C(NC(NC(=S)Nc1ccc(F)c([N+](=O)[O-])c1)C(Cl)(Cl)Cl)C(c1ccccc1)c1ccccc1 (configuration not stated)

>  <measurement-unit>
%

>  <residual activity>
82

$$$$
>  <molecule>
O=C1NC(=O)c2c1c1c3ccccc3[nH]c1n1cncc21

>  <measurement-unit>
%

>  <residual activity>
90

$$$$
>  <molecule>
O=c1cc(N2CCOCC2)oc2c(-c3ccccc3)cccc12

>  <measurement-unit>
%

>  <residual activity>
73

$$$$
>  <molecule>
O=C(O)/C=C/c1cc(Br)c(Br)c(Br)c1Br

>  <measurement-unit>
%

>  <residual activity>
104

$$$$
